// MLKL (Homo sapiens) Kd records
Where a name gives a salt, the structure may show the parent alone.
readout_kind: Kd (nM)

See these solved cases before continuing.
{"compound": "Cn1c(=O)n(C2CCC(=O)NC2=O)c2ccc(N3CCC(C(=O)N4CCN(CCCN5CCC(n6cc(-c7cnc(N)c(C(=O)O[C@@H](C(=O)Nc8ccc(F)cc8)c8ccccc8)n7)cn6)CC5)CC4)CC3)cc21 (stereo partly shown)", "Kd [nM]": 0.37}
{"compound": "Nc1ncc(-c2cnn([C@@H]3CCN(CC4CCN(C(=O)CNc5ccc6c(c5)C(=O)N(C5CCC(=O)NC5=O)C6=O)CC4)C3)c2)nc1C(=O)OC(C(=O)Nc1ccc(F)cc1)c1ccccc1 (stereo partly shown)", "Kd [nM]": 12}

P: Nc1ncc(-c2cnn(C3CCN(CC4CCN(C(=O)CNc5ccc6nnn(C7CCC(=O)NC7=O)c(=O)c6c5)CC4)CC3)c2)nc1C(=O)O[C@@H](C(=O)Nc1ccc(F)cc1)c1ccccc1 (stereo partly shown)
Q: Nc1ncc(-c2cnn(C3CCN(CC4CCN(CC5CCN(C(=O)CNc6ccc7c(c6)C(=O)N(C6CCC(=O)NC6=O)C7=O)CC5)CC4)CC3)c2)nc1C(=O)O[C@@H](C(=O)Nc1ccc(F)cc1)c1ccccc1 (stereo partly shown)
Min Kd? P | Q Your answer should be the label of the entry you select.
Q
(Q: 1.2 nM, P: 2.7 nM)

a: Nc1ncc(-c2cnn(C3CCN(CCOC4CCN(C(=O)CC5CCN(c6ccc7c(c6)C(=O)N(C6CCC(=O)NC6=O)C7=O)CC5)CC4)CC3)c2)nc1C(=O)O[C@@H](C(=O)Nc1ccc(F)cc1)c1ccccc1 (stereo partly shown)
b: CN(C(=O)c1nc(-c2cnn(C3CCNCC3)c2)cnc1N)[C@@H](C(=O)Nc1ccc(F)cc1)c1ccccc1 [TDH-490, hydrochloride]
Endpoint returns the identifier whose Kd is numerically larger, either a or b . Response format: the label of the selected entry.
b

* * *

Target: MLKL (Homo sapiens)
Sequence (Q8NB16 1-471): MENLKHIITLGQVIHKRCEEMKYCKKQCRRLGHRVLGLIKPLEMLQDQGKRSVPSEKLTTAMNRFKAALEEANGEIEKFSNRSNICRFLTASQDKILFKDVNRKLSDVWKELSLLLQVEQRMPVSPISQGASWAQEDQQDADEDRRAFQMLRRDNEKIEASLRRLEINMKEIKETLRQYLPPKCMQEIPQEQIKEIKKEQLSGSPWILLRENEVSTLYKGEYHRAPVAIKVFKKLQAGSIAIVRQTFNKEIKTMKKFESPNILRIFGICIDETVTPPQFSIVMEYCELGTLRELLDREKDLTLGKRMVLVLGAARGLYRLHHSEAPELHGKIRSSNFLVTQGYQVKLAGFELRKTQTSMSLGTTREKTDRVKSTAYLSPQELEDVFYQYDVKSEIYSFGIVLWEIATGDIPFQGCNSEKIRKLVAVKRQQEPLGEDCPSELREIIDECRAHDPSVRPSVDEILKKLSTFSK
Test: MLKL degradation assay in HepG2 cell line (western blot)
Assay type: cell-based
Parameters: endogenous in cells; host or cells: HepG2 or HaCaT
Details: compound 1 μM; cell line not given
readout_kind: Degradation assay (Degradation %) 1 μM

Here is how some compounds turned out for Degradation assay (Degradation %) 1 μM.
{"compound": "Nc1ncc(-c2cnn(C3CCN(CCCCCCNC(=O)C4CCN(c5ccc6c(c5)C(=O)N(C5CCC(=O)NC5=O)C6=O)CC4)CC3)c2)nc1C(=O)O[C@@H](C(=O)Nc1ccc(F)cc1)c1ccccc1 (some centres unmarked)", "measurement": 48.55}
{"compound": "Nc1ncc(-c2cnn(C3CCN(C(=O)CCC4CCN(C(=O)CCc5cccc6c5C(=O)N(C5CCC(=O)NC5=O)C6=O)CC4)CC3)c2)nc1C(=O)O[C@@H](C(=O)Nc1ccc(F)cc1)c1ccccc1 (some centres unmarked)", "measurement": 86.88}
{"compound": "Nc1ncc(-c2cnn(C3CCN(CCC4CCN(CC5CCN(C(=O)Cc6cccc(NC7=CC(=O)N(C8CCC(=O)NC8=O)C7=O)c6)CC5)CC4)CC3)c2)nc1C(=O)O[C@@H](C(=O)Nc1ccc(F)cc1)c1ccccc1 (some centres unmarked)", "measurement": 79.77}

I: Nc1ncc(-c2cnn(C3CCN(C(=O)C4CCN(C(=O)COc5cccc6c5C(=O)N(C5CCC(=O)NC5=O)C6=O)CC4)CC3)c2)nc1C(=O)OC(C(=O)Nc1ccc(F)cc1)c1ccccc1 (centres unmarked)
II: Nc1ncc(-c2cnn(C3CCN(CCC4CCN(C(=O)Cc5cccc(NC6=CC(=O)N(C7CCC(=O)NC7=O)C6=O)c5)CC4)CC3)c2)nc1C(=O)O[C@@H](C(=O)Nc1ccc(F)cc1)c1ccccc1 (some centres unmarked)
// which entry has the larger Degradation assay (Degradation %) 1 μM value, I or II ? Return value: the label identifying the chosen record.
II
